- Tested on: HEK293 FT cells
- Protocol Description: Cas9 mRNA/sgRNA LNP gene editing, amplicon sequencing indel percentage (CRISPR-DAV)
- Assay type: cell-based
- Study Conditions: LNP formulation dosed at 20 uL into 5,000 HEK293 FT cells, four day incubation; rep2
Consider the following compounds and their measured Indel % rep2 Hek readings.
Measurement Label: Indel % rep2 Hek

>>> df
                                   compound  result
0  CCCCCC=CCC=CCCCCCCCC1OC(CCN(C)C)OC1CCCCCCCCCCCCCCCCC (stereo in doubt) [Lipid 10]   63.9%
1  CCCCCCCC/C=C\CCCCCCCC1OC(CCN(C)C)OC1CCCCCCC/C=C\CCCCCCCC (stereo not drawn) [Lipid 3]  90.92%
2  CCCCCCCC/C=C\CCCCCCCC1OC(CCN(C)C)OC1CCCCCCCCCCCCCCCCC (stereo not drawn) [Lipid 8]  74.04%
3  CCCCC/C=C\C/C=C\CCCCCCCC1OC(CCCN(C)C)OC1CCCCCCC/C=C\C/C=C\CCCCC (stereo not drawn) [Lipid 11]  95.87%
4  CCCCC/C=C\C/C=C\CCCCCC1OC(CCN(C)C)OC1CCCCC/C=C\C/C=C\CCCCC (stereo not drawn) [Lipid 6]   8.87%
5  CCCCC/C=C/C/C=C/CCCCCCCC1OC(CCN(C)C)OC1CCCCCCC/C=C/C/C=C/CCCCC (stereo not drawn) [Lipid 9]  66.39%

====

Consider the following compounds and their measured average Radius (nm) rep1 readings.
- Protocol Description: LNP size (average radius), Wyatt Plate Reader III
- Format: physicochemical
- Study Conditions: LNP of ionizable lipid:DSPC:cholesterol:DMG-PEG 45:10:44:1 with Cas9 mRNA and sgRNA, 0.087 mg/ml each; rep1
Measurement Label: average Radius (nm) rep1

>>> print(df.to_string())
                                   compound         measurement_label  value_units  number
0  CCCCC/C=C\C/C=C\CCCCCCCC1OC(CCN(C)C)OC1CCCCCCCCCCCCCCCCC (stereo not shown) [Lipid 4]  average Radius (nm) rep1           nm  153.05
1  CCCCC/C=C/C/C=C/CCCCCCCC1OC(CCN(C)C)OC1CCCCCCC/C=C/C/C=C/CCCCC (stereo not shown) [Lipid 9]  average Radius (nm) rep1           nm     105
2  CCCCCCCC/C=C\CCCCCCCC1OC(CCN(C)C)OC1CCCCCCC/C=C\CCCCCCCC (stereo not shown) [Lipid 3]  average Radius (nm) rep1           nm   92.55
3  CCCCC/C=C\C/C=C\CCCCCC1OC(CCN(C)C)OC1CCCCC/C=C\C/C=C\CCCCC (stereo not shown) [Lipid 6]  average Radius (nm) rep1           nm  98.825

====

- Protocol Description: LNP size (average radius), Wyatt Plate Reader III
- Format: physicochemical
- Study Conditions: LNP of ionizable lipid:DSPC:cholesterol:DMG-PEG 45:10:44:1 with Cas9 mRNA and sgRNA, 0.087 mg/ml each; rep1
Measurement Label: average Radius (nm) rep1

>>> df
                                   compound      result
0  CCCCC/C=C\C/C=C\CCCCCCCC1OC(CCCN(C)C)OC1CCCCCCC/C=C\C/C=C\CCCCC (stereo not drawn) [Lipid 11]  122.675 nm
1  CCCCCCCC/C=C/CCCCCCCC1OC(CCN(C)C)OC1CCCCCCC/C=C/CCCCCCCC (stereo not drawn) [Lipid 2]  142.825 nm
2  CCCCC/C=C\C/C=C\CCCC1OC(CCN(C)C)OC1CCC/C=C\C/C=C\CCCCC (stereo not drawn) [Lipid 5]    94.25 nm
3  CCCCCCCC/C=C/CCCCCCCC1OC(CCN(C)C)OC1CCCCCCCCCCCCCCCCC (stereo not drawn) [Lipid 7]      116 nm
4  CCCCCCCC/C=C\CCCCCCCC1OC(CCN(C)C)OC1CCCCCCCCCCCCCCCCC (stereo not drawn) [Lipid 8]  135.075 nm
5  CCCCCC=CCC=CCCCCCCCC1OC(CCN(C)C)OC1CCCCCCCCCCCCCCCCC (stereo in doubt) [Lipid 10]    177.3 nm
